Counter-ions that a name gives are not always drawn.
MEASUREMENT_LABEL: melting point

Please review the following examples before continuing.
# COMPOUND, melting point
rows = [
    ("CCOC(=O)C(C)(C)c1cn2nc(NCCCN3CCC(NC(c4ccccc4)c4ccccc4)CC3)ccc2n1 [Example 108A]", "115 to 117 °C"),
    ("O=C(O)c1nc2ccc(NCCCN3CCC(OC(c4ccccc4)c4ccccc4)CC3)nn2n1 [Example 117A]", "135 to 138 °C"),
    ("COc1cn2nc(OCCCN3CCC(OC(c4ccccc4)c4ccccc4)CC3)ccc2n1 [Example 41A]", "133 to 135 °C"),
    ("CC(C)(C(=O)O)c1cn2nc(CCCCN3CCN(C(c4ccccc4)c4ccccc4)CC3)ccc2n1 [Example 95A]", "108 to 110 °C"),
    ("OC(COc1ccc2ncnn2n1)CN1CCC(OC(c2ccccc2)c2ccccc2)CC1 (stereo not shown) [Example 16A]", "133 to 135 °C"),
]

May I ask what melting point has been recorded for CC(C)(C)c1cc2ncnn2nc1OCCOCCN1CCN(C(c2ccccc2)c2ccccc2)CC1 (as salt: hydrochloride) [Example 62A, Dihydrochloride] ?
150 to 152 °C

Can you handle CCOC(=O)CNC(=O)c1nc2ccc(NCCCN3CCC(OC(c4ccccc4)c4ccccc4)CC3)nn2c1C [Example 127A] next?
158 to 160 °C

----------
Where a name gives a salt, the structure may show the parent alone.
This section presents compounds with their documented melting point values.

Please review the following examples before continuing.
# COMPOUND, melting point
measured = [
    ("Cc1nc2ccc(NCCCN3CCC(OC(c4ccccc4)c4ccccc4)CC3)nn2c1C(=O)O [Example 107A]", "101 to 103 °C"),
    ("O=C(OCCOc1ccc2ncnn2n1)N1CCC(OC(c2ccccc2)c2ccccc2)CC1 [Example 25A]", "75 to 76 °C"),
    ("c1ccc(-c2nc3ccc(NCCCN4CCC(OC(c5ccccc5)c5ccccc5)CC4)nn3n2)cc1 [Example 32A]", "170 to 172 °C"),
    ("CC(C)c1cc2ncnn2nc1SCCOCCN1CCN(C(c2ccccc2)c2ccccc2)CC1 (as salt: hydrochloride) [Example 59A, Dihydrochloride]", "143 to 145 °C"),
    ("CC(C)c1cc2ncnn2nc1OCCOCCN1CCN(C(c2ccccc2)c2ccccc2)CC1 [Example 61A]", "119 to 120 °C"),
    ("c1ccc(C(c2ccccc2)N2CCN(CCCNc3ccc4ncnn4n3)CC2)cc1 [Example 5A]", "139 to 140 °C"),
]

As a next step, examine the compound that follows.
May I ask what melting point has been recorded for O=C(O)CNC(=O)c1nc2ccc(NCCCN3CCC(OC(c4ccccc4)c4ccccc4)CC3)nn2n1 [Example 125A] ?
256 to 258 °C

----------
This section presents compounds with their documented melting point values.

# COMPOUND, melting point
rows = [
    ("O=C(CN1CCC(OC(c2ccccc2)c2ccccc2)CC1)Nc1ccc2ncnn2n1 [Example 23A]", "158 to 160 °C"),
    ("CC(C)(C)c1cc2ncnn2nc1SCCOCCN1CCN(C(c2ccccc2)c2ccccc2)CC1 [Example 60A]", "106 to 108 °C"),
    ("CC(C)(CO)c1cn2nc(NCCCN3CCC(OC(c4ccccc4)c4ccccc4)CC3)ccc2n1 [Example 75A]", "105 to 108 °C"),
    ("c1ccc(C(c2ccccc2)N2CCN(CCCCCCNc3ccc4ncnn4n3)CC2)cc1 [Example 37A]", "130 to 132 °C"),
]

May I ask what melting point has been recorded for Cc1cc2ncnn2nc1OCCOCCN1CCN(C(c2ccccc2)c2ccccc2)CC1 [Example 47A] ?
71 to 72 °C

Can you handle c1ccc(C(OC2CCN(CCCCNc3ccc4ncnn4n3)CC2)c2ccccc2)cc1 [Example 12A] next?
102 to 104 °C

Can you handle c1ccc(C(OC2CCN(CCNc3ccc4ncnn4n3)CC2)c2ccccc2)cc1 [Example 13A] next?
152 to 154 °C

Can you handle CC(C)(C)c1cc2ncnn2nc1OCCN1CCC(OC(c2ccccc2)c2ccccc2)CC1 [Example 15A] next?
133 to 135 °C

Can you handle CC(C)OC(=O)c1nc2ccc(OCCCN3CCC(OC(c4ccccc4)c4ccccc4)CC3)nn2n1 [Example 122A] next?
126 to 127 °C

Can you handle O=C(O)c1nc2ccc(OCCCN3CCC(OC(c4ccccc4)c4ccccc4)CC3)nn2n1 [Example 123A] next?
173 to 177 °C

----------
MEASUREMENT_LABEL: melting point

# COMPOUND, MEASUREMENT_LABEL, EXPERIMENTAL_RESULT
data = [
    ("CC(C)(C(=O)O)c1nc2ccc(OCCCN3CCN(C(c4ccccc4)c4ccccc4)CC3)nn2c1Cl [Example 88A]", "melting point", "118 to 121 °C"),
    ("CC(C)(C(=O)O)c1cn2nc(CCCN3CCN(C(c4ccccc4)c4ccccc4)CC3)ccc2n1 [Example 104A]", "melting point", "176 to 178 °C"),
    ("CCOC(=O)CNC(=O)c1cn2nc(NCCCN3CCC(OC(c4ccccc4)c4ccccc4)CC3)ccc2n1 [Example 70A]", "melting point", "172 to 174 °C"),
]

As a next step, examine the compound that follows.
May I ask what melting point has been recorded for Cc1nc2ccc(OCCCN3CCC(OC(c4ccccc4)c4ccccc4)CC3)nn2n1 [Example 21A] ?
134 to 136 °C

----------
This section presents molecules with their documented melting point values.
Where a name gives a salt, the structure may show the parent alone.

# MOLECULE, melting point
measured = [
    ("O=C(CN1CCN(C(c2ccccc2)c2ccccc2)CC1)Nc1ccc2ncnn2n1 [Example 24A]", "203 to 204 °C"),
    ("c1ccc(C(OC2CCN(CCCNc3ccc4ncnn4n3)CC2)c2ccccc2)cc1", "136 to 138 °C"),
    ("O=C(O)C1(c2cn3nc(NCCCN4CCC(OC(c5ccccc5)c5ccccc5)CC4)ccc3n2)CC1 [Example 100A]", "115 to 117 °C"),
    ("O=C(O)CNC(=O)c1cn2nc(NCCCN3CCC(OC(c4ccccc4)c4ccccc4)CC3)ccc2n1 [Example 72A]", "171 °C"),
    ("COC(=O)c1nc2ccc(NCCCN3CCC(OC(c4ccccc4)c4ccccc4)CC3)nn2n1 [Example 36A]", "93 to 96 °C"),
    ("c1ccc(C(OC2CCN(CCCOc3ccc4ncnn4n3)CC2)c2ccccc2)cc1 (as salt: fumarate)", "157 to 159 °C"),
    ("Cc1cc2nc(C(C)(C)C(=O)O)cn2nc1OCCCN1CCC(OC(c2ccccc2)c2ccccc2)CC1 [Example 89A]", "122 °C"),
]

May I ask what melting point has been recorded for O=C(CCN1CCN(C(c2ccccc2)c2ccccc2)CC1)Nc1ccc2ncnn2n1 [Example 19A] ?
176 to 177 °C

----------
This section presents compounds with their documented melting point values.

Please review the following examples before continuing.
# COMPOUND, MEASUREMENT_LABEL, EXPERIMENTAL_RESULT
data = [
    ("CCOC(=O)CCNC(=O)c1cn2nc(NCCCN3CCC(OC(c4ccccc4)c4ccccc4)CC3)ccc2n1 [Example 112A]", "melting point", "83 to 86 °C"),
    ("CC(C)(C)OC(=O)c1nc2ccc(NCCCN3CCC(OC(c4ccccc4)c4ccccc4)CC3)nn2n1 [Example 116A]", "melting point", "133 to 135 °C"),
    ("c1ccc(C(OC2CCN(CCCCCNc3ccc4ncnn4n3)CC2)c2ccccc2)cc1 [Example 114A]", "melting point", "96 to 98 °C"),
]

May I ask what melting point has been recorded for O=C(O)c1cc2ncnn2nc1NCCCN1CCC(OC(c2ccccc2)c2ccccc2)CC1 [Example 119A] ?
207 to 209 °C

Can you handle O=C(OCCCOc1ccc2ncnn2n1)C1CC(OC(c2ccccc2)c2ccccc2)CCN1 (stereo not shown) [Example 27A] next?
119 to 120 °C

----------
This section presents compounds with their documented melting point values.

# COMPOUND, MEASUREMENT_LABEL, EXPERIMENTAL_RESULT
records = [
    ("CC(C)(C(=O)O)c1cn2nc(CCCN3CCC(OC(c4ccccc4)c4ccccc4)CC3)ccc2n1 [Example 102A]", "melting point", "195 to 205 °C"),
    ("CC(C)(C(=O)O)c1cn2nc(NCCCN3CCC(OC(c4ccccc4)c4ccccc4)CC3)ccc2n1.O.O (hydrate or solvate) [Example 135A]", "melting point", "203 to 205 °C"),
    ("CCOC(=O)CNC(=O)c1nc2ccc(NCCCN3CCC(OC(c4ccccc4)c4ccccc4)CC3)nn2c1Cl [Example 111A]", "melting point", "178 to 180 °C"),
    ("CC(C)(C(=O)O)c1cn2nc(NCCCN3CCC(OC(c4ccccc4)c4ccccc4)CC3)ccc2n1 [Example 43A]", "melting point", "205 to 206 °C"),
    ("CC(C)(C(=O)O)c1nc2ccc(NCCCN3CCN(C(c4ccccc4)c4ccccc4)CC3)nn2c1Cl [Example 85A]", "melting point", "184 to 186 °C"),
]

As a next step, examine the compound that follows.
May I ask what melting point has been recorded for COC(=O)c1cc2ncnn2nc1NCCCN1CCC(OC(c2ccccc2)c2ccccc2)CC1 [Example 118A] ?
120 to 122 °C

Reference source for all entries: patent US6627630B1
